- Test system: dengue virus type 4
- assay.name: Activity of dengue virus 4 recombinant NS3 protease expressed in Escherichia coli C41(DE3) by fluorogenic assay
Non-standard residues stand in square brackets, D forms with d. Residues, ends and D or L forms follow the SMILES beside them. Tyr(3-NO2) = N[C@@H](Cc1ccc(O)c([N+](=O)[O-])c1)C(=O)O; 2Abz = Nc1ccccc1C(=O)O
measure.name: Km (µM)

compound="C[C@H](NC(=O)[C@H](CO)NC(=O)c1ccccc1N)C(=O)NCC(=O)N[C@@H](Cc1ccc(O)c([N+](=O)[O-])c1)C(N)=O (H-[2Abz]SAG[Tyr(3-NO2)]-NH2)" quantitative_readout=15.2
compound="C[C@H](NC(=O)c1ccccc1N)C(=O)N[C@@H](CC(N)=O)C(=O)NCC(=O)N[C@@H](Cc1cnc[nH]1)C(=O)N[C@@H](Cc1ccc(O)c([N+](=O)[O-])c1)C(N)=O (H-[2Abz]ANGH[Tyr(3-NO2)]-NH2)" quantitative_readout=10.8
compound="C[C@H](NC(=O)CNC(=O)c1ccccc1N)C(=O)N[C@H](C(=O)N[C@@H](Cc1cnc[nH]1)C(=O)N[C@@H](Cc1ccc(O)c([N+](=O)[O-])c1)C(N)=O)[C@@H](C)O (H-[2Abz]GATH[Tyr(3-NO2)]-NH2)" quantitative_readout=7.79
compound="C[C@H](NC(=O)CNC(=O)[C@H](C)NC(=O)[C@H](CO)NC(=O)c1ccccc1N)C(=O)N[C@@H](Cc1ccc(O)c([N+](=O)[O-])c1)C(N)=O (H-[2Abz]SAGA[Tyr(3-NO2)]-NH2)" quantitative_readout=10.5
compound="C[C@@H](O)[C@H](NC(=O)[C@H](CO)NC(=O)c1ccccc1N)C(=O)N1CCC[C@H]1C(=O)N[C@@H](Cc1cnc[nH]1)C(=O)N[C@@H](Cc1ccc(O)c([N+](=O)[O-])c1)C(N)=O (H-[2Abz]STPH[Tyr(3-NO2)]-NH2)" quantitative_readout=14.8

* * *

# Km per entry
- System: dengue virus type 4
- assay.name: Activity of dengue virus 4 recombinant NS3 protease expressed in Escherichia coli C41(DE3) by fluorogenic assay
Non-standard residues stand in square brackets, D forms with d. Residues, ends and D or L forms follow the SMILES beside them. Tyr(3-NO2) = N[C@@H](Cc1ccc(O)c([N+](=O)[O-])c1)C(=O)O; 2Abz = Nc1ccccc1C(=O)O
measure.name: Km (µM)

molecule="NC(=O)[C@H](Cc1ccc(O)c([N+](=O)[O-])c1)NC(=O)[C@H](Cc1cnc[nH]1)NC(=O)[C@@H]1CCCN1C(=O)[C@H](CO)NC(=O)[C@H](Cc1cnc[nH]1)NC(=O)c1ccccc1N (H-[2Abz]HSPH[Tyr(3-NO2)]-NH2)" quantitative_readout=7.25
molecule="NC(=O)C[C@H](NC(=O)c1ccccc1N)C(=O)N1CCC[C@H]1C(=O)N[C@@H](CO)C(=O)N[C@@H](Cc1cnc[nH]1)C(=O)N[C@@H](Cc1ccc(O)c([N+](=O)[O-])c1)C(N)=O (H-[2Abz]NPSH[Tyr(3-NO2)]-NH2)" quantitative_readout=21.5
molecule="C[C@H](NC(=O)[C@H](CC(N)=O)NC(=O)c1ccccc1N)C(=O)N[C@@H](CS)C(=O)N[C@@H](CS)C(=O)N[C@@H](Cc1ccc(O)c([N+](=O)[O-])c1)C(N)=O (H-[2Abz]NACC[Tyr(3-NO2)]-NH2)" quantitative_readout=3.03
molecule="C[C@@H](O)[C@H](NC(=O)[C@H](Cc1c[nH]c2ccccc12)NC(=O)[C@H](CC(N)=O)NC(=O)c1ccccc1N)C(=O)N[C@@H](CC(N)=O)C(=O)N[C@@H](Cc1ccc(O)c([N+](=O)[O-])c1)C(N)=O (H-[2Abz]NWTN[Tyr(3-NO2)]-NH2)" quantitative_readout=10.4
molecule="CSCC[C@H](NC(=O)[C@H](C)NC(=O)[C@H](C)NC(=O)[C@H](CO)NC(=O)c1ccccc1N)C(=O)N[C@@H](Cc1ccc(O)c([N+](=O)[O-])c1)C(N)=O (H-[2Abz]SAAM[Tyr(3-NO2)]-NH2)" quantitative_readout=14.3
molecule="CSCC[C@H](NC(=O)CNC(=O)[C@H](C)NC(=O)[C@H](C)NC(=O)c1ccccc1N)C(=O)N[C@@H](Cc1ccc(O)c([N+](=O)[O-])c1)C(N)=O (H-[2Abz]AAGM[Tyr(3-NO2)]-NH2)" quantitative_readout=8.22
molecule="C[C@@H](O)[C@H](NC(=O)CNC(=O)c1ccccc1N)C(=O)NCC(=O)N[C@@H](CC(N)=O)C(=O)N[C@@H](Cc1ccc(O)c([N+](=O)[O-])c1)C(N)=O (H-[2Abz]GTGN[Tyr(3-NO2)]-NH2)" quantitative_readout=10.7
molecule="CSCC[C@H](NC(=O)CNC(=O)[C@H](C)NC(=O)[C@H](CO)NC(=O)c1ccccc1N)C(=O)N[C@@H](Cc1ccc(O)c([N+](=O)[O-])c1)C(N)=O (H-[2Abz]SAGM[Tyr(3-NO2)]-NH2)" quantitative_readout=22.7
molecule="NC(=O)[C@H](Cc1ccc(O)c([N+](=O)[O-])c1)NC(=O)[C@H](Cc1cnc[nH]1)NC(=O)[C@H](CS)NC(=O)CNC(=O)[C@H](CC(=O)O)NC(=O)c1ccccc1N (H-[2Abz]DGCH[Tyr(3-NO2)]-NH2)" quantitative_readout=9.05
